Value source: ChEMBL document CHEMBL4359878

- System name: Tyrosine-protein kinase JAK2 (Homo sapiens)
- Method summary: Inhibition of N-terminal His-tagged human JAK2 catalytic domain (826 to 1132 resiudes) expressed in baculovirus expression system at 100 nM using FAM-labeled peptide as substrate preincubated for 10 mins followed by substrate addition measured after 1 hr in presence of ATP by mobility shift assay relative to control
Measurement name: inhibition (%)
Expressed in %, but write only the number.

Smiles string	Measurement name	Measured number
CC(=O)c1ccc(NC(=O)N2CCN(c3ccnc(Nc4ccc(OCCN5CCOCC5)cc4)n3)CC2)cc1	inhibition	61.7
CC(=O)c1ccc(NC(=O)N2CCN(c3ccnc(Nc4ccc(OCCN5CCCC5)cc4)n3)CC2)cc1	inhibition	45
NC(=O)c1ccc(NC(=O)N2CCN(c3ccnc(Nc4ccc(N5CCOCC5)cc4)n3)CC2)cc1	inhibition	86.3
COc1ccc(NC(=O)N2CCN(c3ccnc(Nc4ccc(N5CCOCC5)cc4)n3)CC2)cc1	inhibition	48.7
CCN(CC)c1ccc(NC(=O)N2CCN(c3ccnc(Nc4ccc(N5CCOCC5)cc4)n3)CC2)cc1	inhibition	41.2
CC(=O)c1ccc(NC(=O)N2CCN(c3ccnc(Nc4ccc(OCCCN5CCOCC5)cc4)n3)CC2)cc1	inhibition	60.9

Attention now shifts to the item below.
Exercise: Supply measured inhibition of CC(=O)c1ccc(NC(=O)N2CCN(c3ccnc(Nc4ccc(N5CCSCC5)cc4)n3)CC2)cc1 in your reply.
Key: 73.9

* * *

Measured inhibition by item
- System name: Receptor-type tyrosine-protein kinase FLT3 (Homo sapiens) (UniProt P36888)
- Sequence (P36888 whole entry): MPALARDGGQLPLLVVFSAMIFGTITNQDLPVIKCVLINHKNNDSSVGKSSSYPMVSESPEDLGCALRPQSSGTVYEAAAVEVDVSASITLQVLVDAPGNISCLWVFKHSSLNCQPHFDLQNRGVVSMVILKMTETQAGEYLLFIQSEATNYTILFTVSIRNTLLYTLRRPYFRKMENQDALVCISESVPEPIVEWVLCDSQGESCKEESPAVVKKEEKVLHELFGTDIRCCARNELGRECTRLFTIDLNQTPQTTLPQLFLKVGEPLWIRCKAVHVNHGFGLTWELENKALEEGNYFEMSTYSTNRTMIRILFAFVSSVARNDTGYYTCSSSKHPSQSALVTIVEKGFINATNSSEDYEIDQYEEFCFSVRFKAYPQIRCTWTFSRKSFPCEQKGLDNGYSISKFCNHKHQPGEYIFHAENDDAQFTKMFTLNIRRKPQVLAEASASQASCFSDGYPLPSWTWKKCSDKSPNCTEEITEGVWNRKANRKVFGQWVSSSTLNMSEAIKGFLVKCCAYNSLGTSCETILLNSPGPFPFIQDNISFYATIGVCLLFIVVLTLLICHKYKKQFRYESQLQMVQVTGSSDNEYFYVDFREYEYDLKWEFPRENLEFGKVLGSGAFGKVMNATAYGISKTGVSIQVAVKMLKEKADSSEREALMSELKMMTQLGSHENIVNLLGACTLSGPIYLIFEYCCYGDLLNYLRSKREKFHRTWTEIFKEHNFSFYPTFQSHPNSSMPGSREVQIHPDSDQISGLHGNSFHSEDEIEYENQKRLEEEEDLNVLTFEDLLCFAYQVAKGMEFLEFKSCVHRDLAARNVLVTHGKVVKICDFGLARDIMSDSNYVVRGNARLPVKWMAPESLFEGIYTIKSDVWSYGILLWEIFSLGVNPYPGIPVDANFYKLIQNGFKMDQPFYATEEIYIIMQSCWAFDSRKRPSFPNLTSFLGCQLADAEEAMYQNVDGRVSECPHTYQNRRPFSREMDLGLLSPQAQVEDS
- Settings: at 100 nM
- Description: Inhibition of N-terminal GST-tagged human FLT3 cytoplasmic domain (564 to 993 residues) expressed in baculovirus expression system at 100 nM using FAM-labeled peptide as substrate preincubated for 10 mins followed by substrate addition measured after 1 hr in presence of ATP by mobility shift assay relative to control
Expressed in %, but write only the number.

Would you please look over these solved cases?
Smiles string	Measured number
N#Cc1ccc(NC(=O)N2CCN(c3ccnc(Nc4ccc(N5CCOCC5)cc4)n3)CC2)cc1	70.8
O=C(Nc1ccc(C(F)(F)F)cc1)N1CCN(c2ccnc(Nc3ccc(N4CCOCC4)cc3)n2)CC1	36.5
CS(=O)(=O)c1ccc(NC(=O)N2CCN(c3ccnc(Nc4ccc(N5CCOCC5)cc4)n3)CC2)cc1	53.9

Attention now shifts to the item below.
Exercise: Look up and report measured inhibition (Receptor-type tyrosine-protein kinase FLT3 (Homo sapiens) (UniProt P36888)) for the following molecule: NC(=O)c1ccccc1NC(=O)N1CCN(c2ccnc(Nc3ccc(N4CCOCC4)cc3)n2)CC1
Key: 12.5

* * *

Measured GI50 by item
- Tested on: HL-60
- Method summary: Antiproliferative activity against human HL60 cells assessed as growth inhibition after 72 hrs by CCK-8 assay
- Assay type: functional
- Settings: HL-60, 72 h
Expressed in µM, but write only the number.

Would you please look over these solved cases?
Smiles string	GI50 (µM)
CC(=O)c1ccc(NC(=O)N2CCN(c3ccnc(Nc4ccc(OCCCN5CCCC5)cc4)n3)CC2)cc1	29.4
C1=N/C2=N/c3ccc(OCCN4CCCC4)c(c3)COC/C=C/COCc3cccc(c3)C(=C1)N2	1.4
CC(=O)c1ccc(NC(=O)N2CCN(c3ccnc(Nc4ccc(N5CCN(C)CC5)cc4)n3)CC2)cc1	46.4

Attention now shifts to the item below.
Exercise: Supply measured GI50 of CC(=O)c1ccc(NC(=O)N2CCN(c3ccnc(Nc4ccc(N5CCOCC5)cc4)n3)CC2)cc1 in your reply.
Key: 16.5

* * *

- System name: Receptor-type tyrosine-protein kinase FLT3 (Homo sapiens) (UniProt P36888)
- Settings: at 100 nM
Measurement name: inhibition (%)
Expressed in %, but write only the number.

Smiles string	Unit info	inhibition
CC(=O)c1ccc(NC(=O)N2CCN(c3ccnc(Nc4ccc(N5CCOCC5)cc4)n3)CC2)cc1	%	80.7

Attention now shifts to the item below.
Exercise: Supply measured inhibition of CC(=O)c1ccc(NC(=O)N2CCN(c3ccnc(Nc4ccc(OCCN5CCOCC5)cc4)n3)CC2)cc1 in your reply.
Key: 70.6

* * *

- Test system: MV4-11
- Method summary: Antiproliferative activity against human MV4-11 cells assessed as growth inhibition after 72 hrs by CCK-8 assay
- Type: functional
- Settings: MV4-11, 72 h
Measurement name: GI50 (µM)
Expressed in µM, but write only the number.

Smiles string	GI50 [µM]
CC(=O)c1ccc(NC(=O)N2CCN(c3ccnc(Nc4ccc(N5CCN(C)CC5)cc4)n3)CC2)cc1	32

Attention now shifts to the item below.
Exercise: Supply measured GI50 of CC(=O)c1ccc(NC(=O)N2CCN(c3ccnc(Nc4ccc(N5CCOCC5)cc4)n3)CC2)cc1 in your reply.
Key: 11

* * *

- System name: Receptor-type tyrosine-protein kinase FLT3 (Homo sapiens) (UniProt P36888)
- Settings: at 100 nM
Consider the following partition of reported inhibition into named classes: bin 1 = under 20%, bin 2 = from 20% up to 70%, bin 3 = 70% and over

Check out these entries, answers already filled in.
Smiles string	Classification
COc1ccc(NC(=O)N2CCN(c3ccnc(Nc4ccc(N5CCOCC5)cc4)n3)CC2)cc1	bin 2
CCN(CC)c1ccc(NC(=O)N2CCN(c3ccnc(Nc4ccc(N5CCOCC5)cc4)n3)CC2)cc1	bin 1
O=C(Nc1ccccc1C(F)(F)F)N1CCN(c2ccnc(Nc3ccc(N4CCOCC4)cc3)n2)CC1	bin 1
CC(=O)c1ccc(NC(=O)N2CCN(c3ccnc(Nc4ccc(N5CCN(C)CC5)cc4)n3)CC2)cc1	bin 3
CC(C)Oc1ccc(NC(=O)N2CCN(c3ccnc(Nc4ccc(N5CCOCC5)cc4)n3)CC2)cc1	bin 2
CNC(=O)c1ccc(NC(=O)N2CCN(c3ccnc(Nc4ccc(N5CCOCC5)cc4)n3)CC2)cc1	bin 2

Exercise: Which bin, given its inhibition, does NC(=O)c1ccc(NC(=O)N2CCN(c3ccnc(Nc4ccc(OCCN5CCCC5)cc4)n3)CC2)cc1 occupy?
Key: bin 3

Exercise: Which bin, given its inhibition, does NS(=O)(=O)c1ccc(NC(=O)N2CCN(c3ccnc(Nc4ccc(OCCN5CCCC5)cc4)n3)CC2)cc1 occupy?
Key: bin 3

* * *

Measured inhibition by item
- System name: Tyrosine-protein kinase JAK2 (Homo sapiens, UniProt O60674)
- Sequence (O60674 whole entry, the tested form may be a part): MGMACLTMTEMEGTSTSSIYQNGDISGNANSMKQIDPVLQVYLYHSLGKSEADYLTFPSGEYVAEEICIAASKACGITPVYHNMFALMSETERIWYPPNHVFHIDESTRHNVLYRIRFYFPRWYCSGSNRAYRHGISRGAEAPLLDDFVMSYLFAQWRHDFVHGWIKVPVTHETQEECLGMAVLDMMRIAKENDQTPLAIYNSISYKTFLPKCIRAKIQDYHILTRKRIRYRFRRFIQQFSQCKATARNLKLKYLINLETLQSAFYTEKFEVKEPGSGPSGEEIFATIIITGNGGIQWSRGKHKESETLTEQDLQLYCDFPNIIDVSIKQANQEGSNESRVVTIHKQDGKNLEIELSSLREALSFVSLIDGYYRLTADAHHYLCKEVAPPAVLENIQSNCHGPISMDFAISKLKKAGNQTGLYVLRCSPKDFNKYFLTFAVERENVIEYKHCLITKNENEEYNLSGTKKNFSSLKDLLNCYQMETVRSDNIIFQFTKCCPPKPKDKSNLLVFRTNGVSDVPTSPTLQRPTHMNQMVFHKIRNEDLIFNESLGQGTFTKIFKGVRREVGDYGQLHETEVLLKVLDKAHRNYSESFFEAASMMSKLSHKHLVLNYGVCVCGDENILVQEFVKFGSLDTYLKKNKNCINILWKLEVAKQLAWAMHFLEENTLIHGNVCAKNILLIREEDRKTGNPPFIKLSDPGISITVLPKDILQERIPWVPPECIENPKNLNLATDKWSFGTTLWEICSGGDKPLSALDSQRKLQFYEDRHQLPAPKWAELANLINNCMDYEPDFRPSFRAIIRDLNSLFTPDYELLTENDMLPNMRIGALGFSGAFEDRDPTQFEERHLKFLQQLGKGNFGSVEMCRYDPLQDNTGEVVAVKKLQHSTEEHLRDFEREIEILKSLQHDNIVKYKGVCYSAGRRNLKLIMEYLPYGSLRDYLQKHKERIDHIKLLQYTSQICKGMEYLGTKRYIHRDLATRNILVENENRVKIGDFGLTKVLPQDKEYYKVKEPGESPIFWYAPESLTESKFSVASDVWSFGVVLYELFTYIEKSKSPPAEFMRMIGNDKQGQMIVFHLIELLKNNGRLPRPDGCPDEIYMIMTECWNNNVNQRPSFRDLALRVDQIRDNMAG
- Method summary: Inhibition of N-terminal His-tagged human JAK2 catalytic domain (826 to 1132 resiudes) expressed in baculovirus expression system at 100 nM using FAM-labeled peptide as substrate preincubated for 10 mins followed by substrate addition measured after 1 hr in presence of ATP by mobility shift assay relative to control
Expressed in %, but write only the number.

Molecule	System name	Unit info	Measured number
O=C(Nc1ccccc1)N1CCN(c2ccnc(Nc3ccc(N4CCOCC4)cc3)n2)CC1	Tyrosine-protein kinase JAK2 (Homo sapiens, UniProt O60674)	%	53.7
N#CCNC(=O)c1ccc(-c2ccnc(Nc3ccc(N4CCOCC4)cc3)n2)cc1	Tyrosine-protein kinase JAK2 (Homo sapiens, UniProt O60674)	%	94.7
O=C(Nc1ccc(C(F)(F)F)cc1)N1CCN(c2ccnc(Nc3ccc(N4CCOCC4)cc3)n2)CC1	Tyrosine-protein kinase JAK2 (Homo sapiens, UniProt O60674)	%	35.2
CC(C)Oc1ccc(NC(=O)N2CCN(c3ccnc(Nc4ccc(N5CCOCC5)cc4)n3)CC2)cc1	Tyrosine-protein kinase JAK2 (Homo sapiens, UniProt O60674)	%	11.1
COC(=O)CNC(=O)c1ccc(NC(=O)N2CCN(c3ccnc(Nc4ccc(N5CCOCC5)cc4)n3)CC2)cc1	Tyrosine-protein kinase JAK2 (Homo sapiens, UniProt O60674)	%	40.6

Exercise: Supply measured inhibition of COC(=O)c1ccc(NC(=O)N2CCN(c3ccnc(Nc4ccc(N5CCOCC5)cc4)n3)CC2)cc1 in your reply.
Key: 64.4

Exercise: Supply measured inhibition of CN1CCN(c2ccc(Nc3nccc(N4CCN(C(=O)Nc5ccc(C(N)=O)cc5)CC4)n3)cc2)CC1 in your reply.
Key: 84

Exercise: Supply measured inhibition of C1=N/C2=N/c3ccc(OCCN4CCCC4)c(c3)COC/C=C/COCc3cccc(c3)C(=C1)N2 [PACRITINIB] in your reply.
Key: 92

Exercise: Supply measured inhibition of CNC(=O)c1ccc(NC(=O)N2CCN(c3ccnc(Nc4ccc(N5CCOCC5)cc4)n3)CC2)cc1 in your reply.
Key: 68.1

* * *

The following compounds each carry a recorded pIC50 for Tyrosine-protein kinase JAK2 (Homo sapiens, UniProt O60674).
Here pIC50 is given on a logarithmic scale as minus log10 of the concentration in mol/L.

Would you please look over these solved cases?
Smiles string	System name	Measured number
NS(=O)(=O)c1ccc(NC(=O)N2CCN(c3ccnc(Nc4ccc(N5CCOCC5)cc4)n3)CC2)cc1	Tyrosine-protein kinase JAK2 (Homo sapiens, UniProt O60674)	8.03
NC(=O)c1ccc(NC(=O)N2CCN(c3ccnc(Nc4ccc(N5CCOCC5)cc4)n3)CC2)cc1	Tyrosine-protein kinase JAK2 (Homo sapiens, UniProt O60674)	7.96
CC(=O)c1ccc(NC(=O)N2CCN(c3ccnc(Nc4ccc(OCCCN5CCCC5)cc4)n3)CC2)cc1	Tyrosine-protein kinase JAK2 (Homo sapiens, UniProt O60674)	7.19

Attention now shifts to the item below.
Exercise: Look up and report measured pIC50 (Tyrosine-protein kinase JAK2 (Homo sapiens, UniProt O60674)) for the following compound: CC(=O)c1ccc(NC(=O)N2CCN(c3ccnc(Nc4ccc(N5CCN(C)CC5)cc4)n3)CC2)cc1
Key: 7.86
